procedureDetails: Selectivity index, ratio of Ki for dopamine D1 receptor to Ki for rat dopamine D2short receptor
I'd be grateful if you could share measured Ratio Ki for these entries.
Give the value as a plain number.

Item `CCN1CCc2cc(-c3ccccc3)cc3c2[C@H]1Cc1ccc(O)c(O)c1-3` has what recorded Ratio Ki?
2.2

What measured Ratio Ki goes with `CN1CCc2cc(-c3ccccc3)cc3c2[C@H]1Cc1ccc(O)c(O)c1-3` ?
7.5

Could you tell me which Ratio Ki is on file for `CCCN1CCc2cc(-c3ccccc3)cc3c2[C@H]1Cc1ccc(O)c(O)c1-3` ?
3.5

Give its Ratio Ki value. Item: `CCCN1CCc2cc(-c3ccc(O)cc3)cc3c2[C@H]1Cc1ccc(O)c(O)c1-3`
47

Dear colleague, I am looking for the recorded Ratio Ki of the following compound: `CCCN1CCc2cc(C)cc3c2[C@H]1Cc1ccc(O)c(O)c1-3`
30

Return reported Ratio Ki; argument: `CCN1CCc2cc(C)cc3c2[C@H]1Cc1ccc(O)c(O)c1-3`
12

# get_value(readout='Ratio Ki', item= `CCN1CCc2cc(-c3ccc(O)cc3)cc3c2[C@H]1Cc1ccc(O)c(O)c1-3` )
83

# input compound: `CN1CCc2cc(-c3ccc(O)cc3)cc3c2[C@H]1Cc1ccc(O)c(O)c1-3` ; wanted: its Ratio Ki
182

---

targetDesc: D(1A) dopamine receptor (Homo sapiens)
Sequence (P21728 whole entry): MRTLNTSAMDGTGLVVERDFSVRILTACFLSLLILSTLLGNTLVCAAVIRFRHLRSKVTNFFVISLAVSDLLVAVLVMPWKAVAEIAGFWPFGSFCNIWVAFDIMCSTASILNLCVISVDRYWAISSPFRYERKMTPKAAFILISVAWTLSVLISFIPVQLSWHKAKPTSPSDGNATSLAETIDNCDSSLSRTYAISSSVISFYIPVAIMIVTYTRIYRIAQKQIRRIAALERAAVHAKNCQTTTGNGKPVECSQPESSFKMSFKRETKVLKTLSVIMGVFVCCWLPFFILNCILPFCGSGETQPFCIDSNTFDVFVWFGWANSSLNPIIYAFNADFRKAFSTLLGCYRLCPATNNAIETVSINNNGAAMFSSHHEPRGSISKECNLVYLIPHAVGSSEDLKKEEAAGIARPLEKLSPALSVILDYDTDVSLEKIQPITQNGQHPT
procedureDetails: Displacement of [3H]SCH23390 from dopamine D1 receptor expressed in Ltk deficient fibroblast cells by liquid scintillation counting
pKi: −log10 of the molar value.
Binary call on pKi: Fulfilled from 7 upward, Not fulfilled beneath that.

Could you verify whether the entry `CCCN1CCc2cc(C)cc3c2[C@H]1Cc1ccc(O)c(O)c1-3` shows pKi of no less than 7?
Not fulfilled

Item `CN1CCc2cc(-c3ccc(O)cc3)cc3c2[C@H]1Cc1ccc(O)c(O)c1-3` with pKi of 7 or above?
Not fulfilled

Could you please find out whether `CCCN1CCc2cc(-c3ccccc3)cc3c2[C@H]1Cc1ccc(O)c(O)c1-3` has pKi that meets 7 or exceeds it?
Not fulfilled

Exam item: decide whether the reported pKi for `CCN1CCc2cc(-c3ccccc3)cc3c2[C@H]1Cc1ccc(O)c(O)c1-3` is at least 7.
Fulfilled

hey, is pKi for this one >= 7? `CCN1CCc2cc(C)cc3c2[C@H]1Cc1ccc(O)c(O)c1-3`
Not fulfilled

---

targetDesc: D(2) dopamine receptor (Rattus norvegicus)
Sequence (P61169 whole entry): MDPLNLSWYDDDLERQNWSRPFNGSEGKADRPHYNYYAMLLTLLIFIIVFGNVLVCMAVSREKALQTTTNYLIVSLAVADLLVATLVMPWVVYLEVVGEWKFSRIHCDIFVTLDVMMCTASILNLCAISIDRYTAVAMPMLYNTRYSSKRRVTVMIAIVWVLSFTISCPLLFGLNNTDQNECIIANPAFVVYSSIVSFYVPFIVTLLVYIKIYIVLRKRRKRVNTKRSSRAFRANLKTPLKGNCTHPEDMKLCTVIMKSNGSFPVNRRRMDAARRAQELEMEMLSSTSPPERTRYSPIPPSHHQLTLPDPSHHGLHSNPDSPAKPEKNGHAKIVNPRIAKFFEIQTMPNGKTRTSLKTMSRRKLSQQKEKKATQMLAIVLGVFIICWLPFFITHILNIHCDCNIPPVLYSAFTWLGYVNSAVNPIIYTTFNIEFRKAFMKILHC
parameter: pKi
Note on units: pKi is unitless, being -log10 of a concentration expressed in mol/L.

Look up pKi for this compound: `CCN1CCc2cc(C)cc3c2[C@H]1Cc1ccc(O)c(O)c1-3`
6.94

Name the recorded pKi for `CCCN1CCc2cc(-c3ccc(O)cc3)cc3c2[C@H]1Cc1ccc(O)c(O)c1-3` .
8.70

Can you look up the measured pKi of `CCN1CCc2cc(-c3ccccc3)cc3c2[C@H]1Cc1ccc(O)c(O)c1-3` for me?
7.85

What value of measured pKi is listed for `CCCN1CCc2cc(-c3ccccc3)cc3c2[C@H]1Cc1ccc(O)c(O)c1-3` ?
6.72

Please look up its pKi: `CCN1CCc2cc(-c3ccc(O)cc3)cc3c2[C@H]1Cc1ccc(O)c(O)c1-3`
8.82

Please give the measured pKi for this compound: `CCCN1CCc2cc(C)cc3c2[C@H]1Cc1ccc(O)c(O)c1-3`
8.04

Sourced from ChEMBL document CHEMBL1152940
